molecular target: histamine-H2 receptors (Cavia porcellus); construct: determined on isolated atrium and ileum of guinea-pig; from tissue; host or cells: isolated guinea-pig atrium; test: H2-agonistic activity, isolated guinea-pig atrium (method of van Rossum, cumulative dose-response curves); type: biochemical; details: read-out: pD2 -value (Atrium) (converted)
Sequence (P47747 whole entry): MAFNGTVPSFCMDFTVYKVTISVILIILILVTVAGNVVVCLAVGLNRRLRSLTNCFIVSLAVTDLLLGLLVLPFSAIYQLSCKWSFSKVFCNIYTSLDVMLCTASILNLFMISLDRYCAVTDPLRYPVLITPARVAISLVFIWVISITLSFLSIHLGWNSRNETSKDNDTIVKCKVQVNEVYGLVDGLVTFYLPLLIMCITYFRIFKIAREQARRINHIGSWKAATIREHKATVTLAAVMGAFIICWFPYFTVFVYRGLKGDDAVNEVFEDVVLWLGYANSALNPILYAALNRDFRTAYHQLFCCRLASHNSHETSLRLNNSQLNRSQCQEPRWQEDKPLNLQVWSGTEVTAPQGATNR
Where a name gives a salt, the structure may show the parent alone.
measure: EC50 (nM)

{"columns": ["molecule", "unitsSymbol", "EC50"],
 "data": [
  ["NC(=NCCCc1c[nH]cn1)NCCC(c1cccc(Cl)c1)c1ccccn1 (stereo not shown)", "nM", 11.5],
  ["NC(=NCCCc1c[nH]cn1)NCCC(c1ccc(F)c(F)c1)c1ccccn1 (stereo not shown)", "nM", 7.59],
  ["N=C(NCCCc1c[nH]cn1)NCCC(c1cc(F)cc(F)c1)c1ccccn1 (stereo not shown)", "nM", 8.91]
]}

1. N=C(NCCCc1c[nH]cn1)NCCCN(Cc1ccc(Cl)cc1)c1ccccn1
2. N=C(NCCCc1c[nH]cn1)NCCN(Cc1cccs1)c1ccccn1
3. CC(CCNC(=N)NCCCc1c[nH]cn1)(c1ccccc1)c1ccccc1 [Example 8, hydrochloride]
4. NC(=NCCCc1c[nH]cn1)NCCC(c1ccc(F)cc1)c1cccnc1 (stereo not shown)
[in] Exam item: list the entries in increasing order of EC50. Please respond by ranking the labels in the order requested.
[out] 4, 3, 2, 1
(4: 8.13 nM, 3: 123 nM, 2: 437 nM, 1: 2140 nM)

A. N=C(NCCCCc1ccccn1)NCCCc1c[nH]cn1
B. N=C(NCCCc1c[nH]cn1)NCCC(c1ccc(Cl)c(Cl)c1)c1ccccn1 (stereo not shown)
C. N=C(NCCCc1c[nH]cn1)NCCC(c1ccccn1)c1ccc(Cl)cc1Cl (stereo not shown)
[in] Please produce an ascending ranking of these molecules based on EC50. Sort and list the labels as requested.
[out] B, C, A

---

target: histamine H1 receptor (Cavia porcellus, UniProt P31389); construct: determined on isolated atrium and ileum of guinea-pig; from tissue; host or cells: isolated guinea-pig ileum; experiment: H1-antagonistic activity in vitro, isolated guinea-pig ileum (method of Arunlakshana and Schild); assay type: biochemical; details: read-out: pA2 -value (Ileum) (converted)
Sequence (P31389 whole entry): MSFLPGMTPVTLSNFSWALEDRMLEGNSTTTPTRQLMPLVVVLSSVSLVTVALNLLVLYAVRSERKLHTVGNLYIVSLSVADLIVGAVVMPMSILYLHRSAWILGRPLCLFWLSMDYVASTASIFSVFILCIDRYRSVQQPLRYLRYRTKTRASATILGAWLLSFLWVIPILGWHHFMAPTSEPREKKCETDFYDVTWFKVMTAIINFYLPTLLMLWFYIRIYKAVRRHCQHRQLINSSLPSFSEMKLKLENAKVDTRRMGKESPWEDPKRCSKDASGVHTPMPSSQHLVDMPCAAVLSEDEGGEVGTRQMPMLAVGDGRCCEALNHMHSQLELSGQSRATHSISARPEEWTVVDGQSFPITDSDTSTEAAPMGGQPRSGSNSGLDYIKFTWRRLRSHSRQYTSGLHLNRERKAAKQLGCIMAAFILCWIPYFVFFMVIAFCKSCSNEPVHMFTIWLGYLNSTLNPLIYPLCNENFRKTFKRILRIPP
Counter-ions that a name gives are not always drawn.
measure: Kb (nM)

Example compounds with recorded Kb:
{"columns": ["compound", "unitsSymbol", "readoutNumber"],
 "data": [
  ["N=C(NCCCc1c[nH]cn1)NCCCN(Cc1ccc(Cl)cc1)c1ccccn1", "nM", 2.51],
  ["N=C(NCCCc1c[nH]cn1)NCCC(c1ccc(Cl)c(Cl)c1)c1ccccn1 (stereo not shown)", "nM", 115],
  ["CC(CCNC(=N)NCCCc1c[nH]cn1)(c1ccccc1)c1ccccc1 [Example 8, hydrochloride]", "nM", 37.2],
  ["N=C(NCCCc1c[nH]cn1)NCCC(c1cc(F)cc(F)c1)c1ccccn1 (stereo not shown)", "nM", 282]
]}

A. N=C(NCCCCc1ccccn1)NCCCc1c[nH]cn1
B. N=C(NCCCc1c[nH]cn1)NCCC(c1ccccn1)c1ccc(Cl)cc1Cl (stereo not shown)
[in] Please indicate which has the smaller reported Kb: A , or B . # reply format: chosen label
[out] B
(B: 112 nM, A: 309 nM)
